The reported numbers originate from BindingDB's records for doi:10.1021/jm034141y.

TEST SUMMARY: In vitro inhibition of purified Carboxypeptidase B (CPB) by ECL assay
RESULT TYPE: IC50 (nM)
One number for each entry, in nM.

[ask] Fill in: IC50 of Nc1ccc(CC(C(=O)O)c2cn(Cc3ccccc3)cn2)cn1 (configuration not stated) is ___
[reply] 21
